# Test system: 786-0 renal
# experimental protocol: NCI-60 one-dose screen, 48 h
# study conditions: 10 µM unless noted
The panel holds about 83,000 compounds, 20% with a hit somewhere; the sample as a whole holds those more often. Activity calls are given as the source filed them. Rule for the calls: active = growth percent below 10; inactive = the rest.
# valid calls are active, inactive; nothing else

compound="O=C1CC(c2cccc(F)c2)c2c(n[nH]c2-c2ccc(Cl)cc2)N1 (stereo unspecified)" discrete_label=inactive
compound=CCOc1cc2ncc(C#N)c(Nc3ccc(OCc4ccccn4)c(Cl)c3)c2cc1NC(=O)/C=C/CN(C)C discrete_label=active
compound=COc1ccc(Br)cc1NC(=O)Nc1cccc2c1ccn2Cc1ccnc(N)c1 discrete_label=inactive
compound=CC(=O)OCCC/C(=C\c1ccc2ccccc2c1)[N+](=O)[O-] discrete_label=active
compound=CNC(=O)c1ccccc1Nc1nc(Nc2ccc3c(c2OC)CCC[C@H](N2CCN(CCO)CC2)C3)ncc1Cl discrete_label=active
compound=C[C@@H](Oc1cc(-c2cnn(C3CCNCC3)c2)cnc1N)c1c(Cl)ccc(F)c1Cl discrete_label=active

Prompt: Fill in: this test's call for CC1(O)CC(c2nc(-c3ccc4ccc(-c5ccccc5)nc4c3)c3c(N)nccn23)C1 (stereo unspecified) is ___
Response: inactive

Prompt: Fill in: this test's call for O=C(CNc1nc(-c2ccc(Cl)cc2)cs1)Nc1ccc(-c2nc3ccccc3s2)cc1 is ___
Response: inactive

Prompt: Fill in: this test's call for O=C(COc1cccc(/C=C2\Cc3ccc(Cl)cc3C2=O)c1)Nc1nccs1 is ___
Response: inactive

Prompt: Fill in: this test's call for O=C(NC[C@H](O)CO)c1ccncc1Nc1ccc(I)cc1F is ___
Response: inactive

Prompt: Fill in: this test's call for COc1cc(C2CC(c3ccc(Cl)cc3)=NN2c2ccc(Cl)cc2)cc(OC)c1OC (stereo unspecified) is ___
Response: inactive

----------
# Test system: SF-539 CNS
# experimental protocol: NCI-60 one-dose screen, 48 h (100 = growth as untreated, 0 = no growth, -100 = all killed)
# study conditions: 10 µM unless noted
This is part of a sample that, as a whole, favours compounds with a hit. Of some 83,000 tested, about 20% had one in any assay.
growth values, listed per item
Numbers only; they are read as %.

# example entries with known answers
molecule="Nc1nc(=S)c2ncn(C3OC(COC(=O)c4ccc(Cl)cc4)C(OC(=O)c4ccc(Cl)cc4)C3OC(=O)c3ccc(Cl)cc3)c2[nH]1 (stereo not drawn)" study_target="SF-539 CNS" readout=growth reported=89.9
molecule=CC(=O)Oc1ccccc1C(=O)N=C1[Se]CCN1C(=O)c1ccccc1OC(C)=O study_target="SF-539 CNS" readout=growth reported=-79.4

GET /value?item= Cc1ccc(NC(=O)c2ccc(CN3CCN(C)CC3)cc2)cc1Nc1nc(-c2cccnc2)cs1 &field=growth returns -81.5

----------
# System: K-562 leukemia
# experimental protocol: NCI-60 one-dose screen, 48 h
# study conditions: 10 µM unless noted
# Description: Cells are grown in 96 well plates and exposed to the test compound for 48 hours. Compounds are tested at a single concentration, which is 10^-5 M for most compounds. The reported endpoint is percent growth (GI% or GIPRCNT), where numbers from 0 - 100% represent growth inhibition, and numbers from -100% - 0 represent cell death. For example, a value of 40 represents 60% growth inhibition. A value of 0 means no net growth occurred over the course of the experiment. […]
The panel holds about 83,000 compounds, 20% with a hit somewhere; the sample as a whole holds those more often. Activity calls are given as the source filed them. The calls were made as follows: active = growth percent below 10; inactive = the rest.
# valid calls are active, inactive; nothing else

compound=CCCCCCCC(=O)SCC/C=C/[C@@H]1CC(=O)NCc2nc(co2)C2=N[C@@](C)(CS2)C(=O)N[C@@H](C(C)C)C(=O)O1 discrete_label=active

We next turn to a different compound, shown below.
Prompt: Fill in: this test's call for COc1cc2ncnc(Nc3cccc(Cl)c3F)c2cc1OC(=O)N1CCN(C)C[C@H]1C is ___
Response: inactive
